test system: Staphylococcus sp.; experiment: in vitro antibacterial evaluation, MIC by broth dilution; assay type: cell-based; conditions: strain GC 4542; broth dilution, 18 hours at 35° C.
Measured MIC Staphylococcus aureus (GC 4542) by item
Give just the number in µg/mL; leave the unit off.

{"compound": "COc1ccc(CC2OCC3OC(OC4C(CO)OC(Oc5ccc(CC6NC(=O)C(C(C)c7ccccc7)NC(=O)CNC(=O)C(CO)NC(=O)C(C(O)C7CNC(=N)N7C7OC(CO)C(O)C(O)C7O)NC(=O)C(C(O)C7CNC(=N)N7)NC6=O)cc5)C(O)C4O)C(O)C(O)C3O2)cc1 (stereo not drawn)", "value reported": 2}

Exercise: Fill blank: measured MIC Staphylococcus aureus (GC 4542) of the compound CC(=O)Nc1cc(CC2NC(=O)C(C(C)c3ccccc3)NC(=O)CNC(=O)C(CO)NC(=O)C(C(O)C3CNC(=N)N3C3OC(CO)C(O)C(O)C3O)NC(=O)C(C(O)C3CNC(=N)N3)NC2=O)ccc1O (stereo not drawn) is ____.
Solution: 64

Exercise: What value of measured MIC Staphylococcus aureus (GC 4542) is listed for CCCCCCC(=O)Nc1cc(CC2NC(=O)C(C(C)c3ccccc3)NC(=O)CNC(=O)C(CO)NC(=O)C(C(O)C3CNC(=N)N3C3OC(CO)C(O)C(O)C3O)NC(=O)C(C(O)C3CNC(=N)N3)NC2=O)ccc1O (stereo not drawn) ?
Solution: 128

Exercise: What value of MIC Staphylococcus aureus (GC 4542) has been recorded for this entry: CC(c1ccccc1)C1NC(=O)CNC(=O)C(CO)NC(=O)C(C(O)C2CNC(=N)N2C2OC(CO)C(O)C(O)C2O)NC(=O)C(C(O)C2CNC(=N)N2)NC(=O)C(Cc2ccc3oc(SCc4ccc5ccccc5c4)nc3c2)NC1=O (stereo not drawn)
Solution: 8

Exercise: Look up MIC Staphylococcus aureus (GC 4542) for this compound: CC(c1ccccc1)C1NC(=O)CNC(=O)C(CO)NC(=O)C(C(O)C2CNC(=N)N2C2OC(CO)C(O)C(O)C2O)NC(=O)C(C(O)C2CNC(=N)N2)NC(=O)C(Cc2ccc3oc(SCc4ccccc4)nc3c2)NC1=O (stereo not drawn)
Solution: 8

Exercise: Quick check: MIC Staphylococcus aureus (GC 4542) of N=C1NCC(C(O)C2NC(=O)C(Cc3ccc(OC4OC(CO)C(OC5OC(CO)C(O)C6OC7(OC56)C5CC6CC(C5)CC7C6)C(O)C4O)cc3)NC(=O)C(CC3CCCCC3)NC(=O)CNC(=O)C(CO)NC(=O)C(C(O)C3CNC(=N)N3C3OC(CO)C(O)C(O)C3O)NC2=O)N1 (stereo not drawn) [Example 106a] ?
Solution: 2

Exercise: What value of MIC Staphylococcus aureus (GC 4542) has been reported for the following compound? CC(c1ccccc1)C1NC(=O)CNC(=O)C(CO)NC(=O)C(C(O)C2CNC(=N)N2C2OC(CO)C(O)C(O)C2O)NC(=O)C(C(O)C2CNC(=N)N2)NC(=O)C(Cc2ccc3oc(-c4cccc([N+](=O)[O-])c4)nc3c2)NC1=O (stereo not drawn)
Solution: 16

Exercise: Sample CC(c1ccccc1)C1NC(=O)CNC(=O)C(CO)NC(=O)C(C(O)C2CNC(=N)N2C2OC(CO)C(O)C(O)C2O)NC(=O)C(C(O)C2CNC(=N)N2)NC(=O)C(Cc2ccc(OC3OC(CO)C(OC4OC(CO)C(O)C5OC(c6ccccc6)OC45)C(O)C3O)cc2)NC1=O (single isomer, unassigned) [Example 104b] — what was its MIC Staphylococcus aureus (GC 4542)?
Solution: 0.5

Exercise: Tell me the measured MIC Staphylococcus aureus (GC 4542) of Cc1ccc(Oc2cccc(C3OCC4OC(OC5C(CO)OC(Oc6ccc(CC7NC(=O)C(C(C)c8ccccc8)NC(=O)CNC(=O)C(CO)NC(=O)C(C(O)C8CNC(=N)N8C8OC(CO)C(O)C(O)C8O)NC(=O)C(C(O)C8CNC(=N)N8)NC7=O)cc6I)C(O)C5O)C(O)C(O)C4O3)c2)cc1 (stereo not drawn) , please.
Solution: 64

Exercise: Could you share which MIC Staphylococcus aureus (GC 4542) value was measured for CC(c1ccccc1)C1NC(=O)CNC(=O)C(CO)NC(=O)C(C(O)C2CNC(=N)N2C2OC(CO)C(O)C(O)C2O)NC(=O)C(C(O)C2CNC(=N)N2)NC(=O)C(Cc2ccc(OC3OC(CO)C(OC4OC(COC(=O)C(c5ccccc5)c5ccccc5)C(O)C(O)C4O)C(O)C3O)cc2)NC1=O (stereo not drawn) [Example 96c] ?
Solution: 1

###

test system: Enterococcus sp.; test: in vitro antibacterial evaluation, MIC by broth dilution; type: cell-based; details: broth dilution, inoculum 5×10^5 CFU/mL, 18 hours at 35° C.; strain GC 3059
// values below are reported MIC Enterococcus faecalis (GC 3059)
Could you give me the number in µg/mL? Just the number is fine.

{"molecule": "CC(c1ccccc1)C1NC(=O)CNC(=O)C(CO)NC(=O)C(C(O)C2CNC(=N)N2C2OC(CO)C(O)C(O)C2O)NC(=O)C(C(O)C2CNC(=N)N2)NC(=O)C(Cc2ccc(OC3OC(CO)C(OC4OC5COC(c6ccc(-c7ccsc7)cc6)OC5C(O)C4O)C(O)C3O)cc2)NC1=O (stereo not shown)", "MIC Enterococcus faecalis (GC 3059), µg/mL": 8}

In the following, a different molecule is considered.
Exercise: Tell me the measured MIC Enterococcus faecalis (GC 3059) of CC(c1ccccc1)C1NC(=O)CNC(=O)C(CO)NC(=O)C(C(O)C2CNC(=N)N2C2OC(CO)C(O)C(O)C2O)NC(=O)C(C(O)C2CNC(=N)N2)NC(=O)C(Cc2ccc(OC3OC(CO)C(OC4OC(CO)C(O)C5OC6(CCCCCCCCCCCC6)OC45)C(O)C3O)cc2)NC1=O (stereo not shown) [Example 210a] , please.
Solution: 8

###

system: Enterococcus sp.; assay: in vitro antibacterial evaluation, MIC by broth dilution; format: cell-based; conditions: broth dilution, 18 hours at 35° C.; strain GC 4556
A collection of compounds and their measured MIC Enterococcus faecium (GC 4556)
Give the value in µg/mL but do not write µg/mL after it.

In the examples that follow, each entry is paired with its recorded MIC Enterococcus faecium (GC 4556).
{"compound": "CC(c1ccccc1)C1NC(=O)CNC(=O)C(CO)NC(=O)C(C(O)C2CNC(=N)N2C2OC(CO)C(O)C(O)C2O)NC(=O)C(C(O)C2CNC(=N)N2)NC(=O)C(Cc2ccc(OC3OC(CO)C(OC4OC(COC(=O)NCc5ccccc5)C(O)C(O)C4O)C(O)C3O)cc2)NC1=O (stereo not shown) [Example 257b]", "readout unit": "µg/mL", "MIC Enterococcus faecium (GC 4556)": 16}
{"compound": "CC(c1ccccc1)C1NC(=O)CNC(=O)C(CO)NC(=O)C(C(O)C2CNC(=N)N2C2OC(CO)C(O)C(O)C2O)NC(=O)C(C(O)C2CNC(=N)N2)NC(=O)C(Cc2ccc(OC3OC(CO)C(OC4OC(COCC=C(c5ccccc5)c5ccccc5)C(O)C(O)C4O)C(O)C3O)cc2)NC1=O (stereo not shown)", "readout unit": "µg/mL", "MIC Enterococcus faecium (GC 4556)": 4}
{"compound": "CC(c1ccccc1)C1NC(=O)CNC(=O)C(CO)NC(=O)C(C(O)C2CNC(=N)N2C2OC(CO)C(O)C(O)C2O)NC(=O)C(C(O)C2CNC(=N)N2)NC(=O)C(Cc2ccc(OC3OC(CO)C(OC4OC5COC(C67CC8CC(CC(C8)C6)C7)OC5C(O)C4O)C(O)C3O)cc2)NC1=O (stereo not shown)", "readout unit": "µg/mL", "MIC Enterococcus faecium (GC 4556)": 4}
{"compound": "CC(c1ccccc1)C1NC(=O)CNC(=O)C(CO)NC(=O)C(C(O)C2CNC(=N)N2C2OC(CO)C(O)C(O)C2O)NC(=O)C(C(O)C2CNC(=N)N2)NC(=O)C(Cc2ccc(OC3OC(CO)C(OC4OC5COC(c6ccsc6)OC5C(O)C4O)C(O)C3O)cc2)NC1=O (stereo not shown)", "readout unit": "µg/mL", "MIC Enterococcus faecium (GC 4556)": 8}

Exercise: Using the record for COc1ccc2cc(COCC3OC(OC4C(CO)OC(Oc5ccc(CC6NC(=O)C(C(C)c7ccccc7)NC(=O)CNC(=O)C(CO)NC(=O)C(CC7CNC(=N)N7C7OC(CO)C(O)C(O)C7O)NC(=O)C(CC7CNC(=N)N7)NC6=O)cc5)C(O)C4O)C(O)C(O)C3O)ccc2c1 (stereo not shown) , report its MIC Enterococcus faecium (GC 4556).
Solution: 16

###

MIC Coagulase Negative Staphylococcus (GC 4549) values for the compounds below.
test system: Staphylococcus sp.; experiment: in vitro antibacterial evaluation, MIC by broth dilution; assay type: cell-based; conditions: broth dilution, 18 hours at 35° C.; strain GC 4549

Exercise: Need MIC Coagulase Negative Staphylococcus (GC 4549) of CCCCCCCC1OCC2OC(OC3C(CO)OC(Oc4ccc(CC5NC(=O)C(C(C)c6ccccc6)NC(=O)CNC(=O)C(CO)NC(=O)C(C(O)C6CNC(=N)N6C6OC(CO)C(O)C(O)C6O)NC(=O)C(C(O)C6CNC(=N)N6)NC5=O)cc4)C(O)C3O)C(O)C(O)C2O1 (stereo not drawn) , thanks.
Solution: 1 µg/mL
